B1: Ventral anterior homeobox 1, residues 102 to 157; numbered along this chain, Q5SQQ9 (parent)
chain: RTRTSFTAEQLYRLEMEFQRCQYVVGRERTELARQLNLSETQVKVWFQNRRTKQKK

- Variants of: B1
- Test name: abundance fitness (aPCA) (normalised: wild type 0, dead -1); higher = more abundant; growth selection in yeast, the domain comes from the species named
- Conditions: Homo sapiens
Recorded metric: abundance fitness

{"Sequence variant": "V24N", "Test value": -0.25}
{"Sequence variant": "L32C", "Test value": -0.777}
{"Sequence variant": "T52Q", "Test value": -0.145}
{"Sequence variant": "Q35L", "Test value": -0.135}
{"Sequence variant": "L11D", "Test value": 0.022}
{"Sequence variant": "Q35T", "Test value": -0.205}
{"Sequence variant": "V25W", "Test value": -0.633}
{"Sequence variant": "V24C", "Test value": 0.12}
{"Sequence variant": "S5L", "Test value": -0.179}
{"Sequence variant": "E31I", "Test value": -0.399}
{"Sequence variant": "K53Q", "Test value": 0.115}
{"Sequence variant": "L11Y", "Test value": -0.335}
{"Sequence variant": "F6R", "Test value": -0.71}
{"Sequence variant": "E28D", "Test value": -0.077}
{"Sequence variant": "L38I", "Test value": -0.307}
{"Sequence variant": "A8W", "Test value": -0.348}
{"Sequence variant": "L32K", "Test value": -0.641}
{"Sequence variant": "V43M", "Test value": -0.838}
{"Sequence variant": "K56N", "Test value": 0.151}
{"Sequence variant": "N49E", "Test value": 0.297}
{"Sequence variant": "N49F", "Test value": -0.609}
{"Sequence variant": "L36T", "Test value": -0.264}
{"Sequence variant": "T7M", "Test value": -0.452}
{"Sequence variant": "E9I", "Test value": -0.456}
{"Sequence variant": "R51F", "Test value": -0.2}
{"Sequence variant": "K53F", "Test value": 0.174}
{"Sequence variant": "C21G", "Test value": -0.16}
{"Sequence variant": "L36A", "Test value": -0.601}
{"Sequence variant": "E28S", "Test value": -0.338}
{"Sequence variant": "T52G", "Test value": 0.137}
{"Sequence variant": "E28P", "Test value": -0.171}
{"Sequence variant": "L38S", "Test value": -0.321}
{"Sequence variant": "V24D", "Test value": -0.347}
{"Sequence variant": "R13N", "Test value": -0.283}
{"Sequence variant": "W46T", "Test value": -0.922}
{"Sequence variant": "T7W", "Test value": -0.925}
{"Sequence variant": "F6V", "Test value": -0.105}
{"Sequence variant": "A33R", "Test value": -0.992}
{"Sequence variant": "L14I", "Test value": -0.54}
{"Sequence variant": "E17M", "Test value": -0.281}
{"Sequence variant": "V43P", "Test value": -0.723}
{"Sequence variant": "K55R", "Test value": -0.187}
{"Sequence variant": "K55Y", "Test value": -0.199}
{"Sequence variant": "K53E", "Test value": 0.186}
{"Sequence variant": "R3C", "Test value": 0.211}
{"Sequence variant": "E40C", "Test value": -0.226}
